system: crabgrass (Digitaria sanguinalis); assay: Test B postemergence; format: in vivo; details: Rate 500 g/ha, scale 0 to 100, 0 is no effect, 100 is complete control, 13 to 15 days
TEST READOUT: Plant response rating, Crabgrass
I'd appreciate a reply containing only the number, no unit.

Which Plant response rating, Crabgrass reading was recorded for the compound CC(C)(C)c1ccn(C2CCN(c3cccc(C(F)(F)F)c3)C2=O)n1 (stereo not shown) ?
40

Which Plant response rating, Crabgrass reading was recorded for the compound CCC(C)c1ccn(C2CCN(c3ccc(C)c(OC)c3)C2=O)n1 (stereo not shown) ?
40

Which Plant response rating, Crabgrass reading was recorded for the compound CCC(C)c1ccn(C2SCN(c3cccc(OC(F)(F)F)c3)C2=O)n1 (stereo not shown) ?
100

Which Plant response rating, Crabgrass reading was recorded for the compound O=C1C(n2cccn2)CCN1c1cccc(C(F)(F)F)c1 (stereo not shown) ?
50

Which Plant response rating, Crabgrass reading was recorded for the compound CC(C)c1ccn(C2SCN(c3cccc(C(F)(F)F)c3)C2=O)n1 (stereo not shown) ?
40

Which Plant response rating, Crabgrass reading was recorded for the compound CC1(c2ccn(C3SCN(c4cccc(C(F)(F)F)c4)C3=O)n2)CC1 (stereo not shown) ?
50

Further cases:
Which Plant response rating, Crabgrass reading was recorded for the compound CCC(CC)c1ccn(C2CCN(c3ccc(C)c(OC)c3)C2=O)n1 (stereo not shown) ?
30

Which Plant response rating, Crabgrass reading was recorded for the compound Cc1cc(N2CCC(n3ccc(C(C)(C)C)n3)C2=O)ccc1Cl (stereo not shown) ?
0

Which Plant response rating, Crabgrass reading was recorded for the compound O=C1C(n2ccc(C3CC3)n2)SCN1c1cccc(C(F)(F)F)c1 (stereo not shown) ?
20

Which Plant response rating, Crabgrass reading was recorded for the compound O=C1C(n2ccc(C3CC3)n2)CCN1c1cccc(C(F)(F)F)c1 (stereo not shown) ?
0

###

system: woolly cupgrass (Eriochloa villosa); assay: Test C preemergence; type: in vivo; conditions: Preemergence; Rate 500 g/ha; scale 0 to 100
TEST READOUT: Plant response rating, Cupgrass, Woolly
I'd appreciate a reply containing only the number, no unit.

Which Plant response rating, Cupgrass, Woolly reading was recorded for the compound CC(C)c1ccn(C2SCN(c3cccc(OC(F)F)c3)C2=O)n1 (centres unmarked) [Compound 44] ?
100

Which Plant response rating, Cupgrass, Woolly reading was recorded for the compound O=C1C(n2ccc(C3CC3)n2)CCN1c1cccc(C(F)(F)F)c1 (centres unmarked) [Compound 8] ?
80

Which Plant response rating, Cupgrass, Woolly reading was recorded for the compound O=C1C(n2ccc(C3CCC3)n2)OCN1c1cccc(C(F)(F)F)c1 (centres unmarked) [Compound 39] ?
100

Further cases:
Which Plant response rating, Cupgrass, Woolly reading was recorded for the compound CC(C)c1ccn(C2SCN(c3cccc(OC(F)(F)F)c3)C2=O)n1 (centres unmarked) [Compound 31] ?
100

Which Plant response rating, Cupgrass, Woolly reading was recorded for the compound O=C1C(n2ccc(C3CCC3)n2)SCN1c1cccc(OC(F)F)c1 (centres unmarked) [Compound 45] ?
100

Which Plant response rating, Cupgrass, Woolly reading was recorded for the compound CCC(C)c1ccn(C2SCN(c3cccc(OC(F)(F)F)c3)C2=O)n1 (centres unmarked) [Compound 32] ?
90

Which Plant response rating, Cupgrass, Woolly reading was recorded for the compound O=C1C(n2ccc(C3CCCCC3)n2)SCN1c1cccc(OC(F)(F)F)c1 (centres unmarked) [Compound 50] ?
90

Which Plant response rating, Cupgrass, Woolly reading was recorded for the compound CCC(C)c1ccn(C2SCN(c3cccc(OC(F)(F)F)c3)C2=O)n1 (centres unmarked) [Compound 40] ?
100

The measurements presented in this section are drawn from patent US7138361B2.
